For each of the molecules below, state its viability at 48 h, 10 µM.
protocol: Cytotoxicity, CellTiter Glo 2.0
Type: cell-based
conditions: human; panel B; HeLa; 10 µM; 48 h; ± SD; read-out: Cell line viability (%) after treatment with 10 µM compound
Numbers only, in %.

I need viability at 48 h, 10 µM for every entry listed below, if you could help.
1. COC1=CC(=O)N(C(=O)/C=C/[C@H](C)NC(=O)[C@H](CC(C)C)NC(=O)[C@H](CC(C)C)OC(=O)[C@H](Cc2ccccc2)N(C)C)[C@H]1Cc1ccccc1
2. CC[C@H](C)[C@@H](C(=O)O[C@@H](CC(C)C)C(=O)N[C@@H](CC(C)C)C(=O)N[C@@H](C)/C=C/C(=O)N1C(=O)C=C(OC)[C@@H]1C)N(C)C [gallinamide A]

1: 13; 2: 73
